Origin of the recorded values: PubChem BioAssay (NCI)

Tested on: OVCAR-5 ovarian
PROTOCOL NOTES: NCI tumour cell line growth inhibition, 48 h
OBSERVATION TYPE: TGI

Some solved entries appear below for comparison.
>>> observed("CCOC(=O)/C(C#N)=C/c1ccnc2ccccc12")
"> 100 µM"
>>> observed("CC(C)(C)C1CCC2c3c([nH]c4ccccc34)C3C(=O)N(c4ccccc4)C(=O)C3C2C1 (stereo not given)")
"> 100 µM"
>>> observed("O=C(CNc1ccccc1[N+](=O)[O-])Nn1c(-c2ccccc2)nc2ccccc2c1=O")
"41.3 µM"
>>> observed("CN(c1ccccc1Cl)S(=O)(=O)c1ccc([N+](=O)[O-])cc1")
"> 100 µM"
>>> observed("N#C/C(=C1\\SC(N=Nc2ccccc2)C(=O)N1c1ccccc1)c1nc2ccccc2[nH]1 (stereo not given)")
"> 100 µM"

Now look at this one.
// query TGI value for entry COc1ccc(-c2c3c(n(C4OC(COC(C)=O)C(OC(C)=O)C(OC(C)=O)C4OC(C)=O)c(=S)c2C#N)CC(C)(C)CC3=O)cc1 (stereo not given)
> 100 µM

* * *

Tested on: MDA-MB-435
PROTOCOL NOTES: NCI tumour cell line growth inhibition, 48 h
OBSERVATION TYPE: TGI

>>> observed("Nc1ccn(C2OC(COC(=O)C34CC5CC(CC(C5)C3)C4)C(O)C2O)c(=O)n1 (stereo not given)")
"> 100 µM"

Which TGI is reported with MDA-MB-435 for this entry: O=C1OC(=O)c2cc(S(=O)(=O)c3ccc4c(c3)C(=O)OC4=O)ccc21 ?
> 100 µM

Which TGI is reported with MDA-MB-435 for this entry: Clc1ccc(C2Nc3ccccc3C3=NCCN32)cc1 (stereo not given) ?
39.8 µM

* * *

Tested on: M14 melanoma
PROTOCOL NOTES: NCI tumour cell line growth inhibition, 48 h
Item-by-item account of TGI
Value expressed in µM; do not type the unit.

>>> observed("C=C1C(=O)O[C@@H]2C[C@]3(C)CC[C@]4(C)[C@H](CC[C@@H]5[C@@]6(C)CCC(=O)C(C)(C)[C@@H]6CC[C@]54C)[C@H]3[C@H]12")
31.3

Now look at this one.
// query TGI value for entry COc1ccc(N2C(=O)C3c4[nH]c5ccc(F)cc5c4C4CCC(c5ccccc5)CC4C3C2=O)cc1 (centres undefined)
45.1

* * *

Item-by-item account of TGI
Test system: M14 melanoma
PROTOCOL NOTES: NCI tumour cell line growth inhibition, 48 h

Some solved entries appear below for comparison.
>>> observed("CCOc1cccc2ccc[n+](CC)c12")
"> 100 µM"
>>> observed("CC1(CCC(=O)OC2CCCCC2)OCCO1")
"> 100 µM"
>>> observed("CC(=O)On1c(-c2ccccc2-c2nc3ccccc3n2OC(C)=O)nc2ccccc21")
"> 100 µM"
>>> observed("CC/C=C(\\C(=C/CC)[N+](=O)[O-])[N+](=O)[O-]")
"27 µM"
>>> observed("FC1C2=C(SC1(F)F)C1CCC2C1 (stereo unspecified)")
"> 100 µM"

Now look at this one.
// query TGI value for entry COC(=O)C(Cc1nc2ccccc2[nH]c1=O)C(=O)C(=O)Nc1ccc([N+](=O)[O-])cc1[N+](=O)[O-] (stereo unspecified)
32.4 µM
